Origin of the recorded values: the nanobody polyreactivity screen of Harvey et al. (2022)

# assay: yeast display, Sf9 membrane polyspecificity reagent, FACS + sequencing; frameworks hold sequencing errors

{"residue-string": "QDQLVESGGGLVQAGGSLRLSCAASGRIFYTNGMGWYRQAPGKERELVAAITYSGGNTFYADSVKGRFTISRDNAKNTVYLQMNSLKPEDTAVYYCAATFTYLGYWYDYWGQGTQVTVSS", "polyreactivity (PSR sort gate)": "low polyreactivity"}
{"residue-string": "QVQLEESGGGLVQAGGSLRLSCAASGRTFKYYAMGWYIQAPGKERELVAAISWSGGDTYYADSVKGRFTISRDNAKNTVYLQMNSLKQEDTAVYYCAKYPWYRYPSYEYWGQGTQVTVSS", "polyreactivity (PSR sort gate)": "high polyreactivity"}
{"residue-string": "QVQLVESGGGIFQEGGSLRLSCAASGLIFRSYDMGWYRQAPGKERELVAAITDLFWSTYYADSVKGRFTISRDNAKNTVYLQMYSLKPEDTAVYYCARDDWVYTNVEMDYWGQVTQVTVSS", "polyreactivity (PSR sort gate)": "high polyreactivity"}
{"residue-string": "QVQHEESGGGLFQAGGSLRLICAASGSIFDYYAMGWYRQAPGKERELVSTYYADSVKVRFTISRDNAKNTVYLQLNSLKPEDTAVYFCAKDRGTTGIPDGPAASLYGYVYWGQGTQVTVSS", "polyreactivity (PSR sort gate)": "low polyreactivity"}
{"residue-string": "QVQRVDSGGGLVQAGGSLRVSCAASGFIFVANAMGGDREAPGKERELVADINRGSTYYADSVKGRFTISRDNAKNTVYLQMNSLKPEDTAVYYCAARHWRRSGIYYYWGQGTQVTVSS", "polyreactivity (PSR sort gate)": "high polyreactivity"}

----------
# assay: yeast display, Sf9 membrane polyspecificity reagent, FACS + sequencing; frameworks hold sequencing errors

{"residue-string": "QVQLVESGGGLVQAGGSLRLSSAASGLIFTRYAMGWYRQATGKERELVAAISYSGTSTYYADSVKGRFTISRDNAKNTVYLQMNSLKPEDTAVYYCAARSSYPLKGYYWGQGTQVTVSS", "polyreactivity (PSR sort gate)": "high polyreactivity"}
{"residue-string": "QVQLVESGGGLVQAGGSLRLICAASGSIFSENTMGWYRQAPGKERELVAAISWSGGSTKYADSVKGRFTISRDNAQITVYLQMNCLKPEDTSVYNCGTDIHDDTGAYDYWGQCTQVTVSS", "polyreactivity (PSR sort gate)": "low polyreactivity"}
{"residue-string": "QVQLVESGGGLVQAGGSLRLSCAASGFIFGGYPMGWYRQAPGKERELVAAITIRGGSTSYADSVKGRFTISRDIAMNTVYLQMNSLKPEDSAVYYCNRQSRNAGGYYWGQGTQVTVSS", "polyreactivity (PSR sort gate)": "low polyreactivity"}
{"residue-string": "QVQLVESGGGLVQAGGSLRLSCASSGRIFDGNAMGWYRQAPGKERELVAAISWTGGSTYYADSVKGRFTISRDNAKNTVYLQMYSLKPVDTAVYYCAADSGWWLDQWSWYDYWGLGTQVTVSS", "polyreactivity (PSR sort gate)": "low polyreactivity"}
{"residue-string": "QVQLVDSGGGLVQAGGSLRLSCDASGSTFRGYAMGWYRKAPGKERELVAAISSRGARTHYADSLKGRFTISRDNAKNNVYLQMNSLKPEDTAVYYCNKRQVFFSTGEYEFDYWGQGTQVTVSS", "polyreactivity (PSR sort gate)": "low polyreactivity"}
{"residue-string": "QVQLVESGGGLVQAGGSLRLSCAASGSIFHHNAMGWYRQAPGKERELVAAISSRSGNTYYADSVKGRFTISRDNAKNTVYLQMNSLKPEDTAVYYCAKAFRGHYWGQGTQVTVSS", "polyreactivity (PSR sort gate)": "high polyreactivity"}
{"residue-string": "QVQLVESGGGLVQAGGSLRLSCAASGRIFDYNTMGWYRQAPGKERELVAAITGGTGSTYYADSVKGRFTISRDNAKNTVYLQMNSLKPEDTAVYYCAAGFHKRVSPEILYDYWGQGTLVTVSS", "polyreactivity (PSR sort gate)": "low polyreactivity"}
{"residue-string": "QVHLVESGGGLVQAGGSLRLSCAASGITFKRYAMGWYRQAPGKERELVAAISDIGGRTYYADSVKGRFTISRDNAKNTVYLQMNSLKPEDTAGYFCAADYYSPVDWYYYWGQGTQVTVSS", "polyreactivity (PSR sort gate)": "high polyreactivity"}
{"residue-string": "QVQLVESGGGLVQAGGSLRLSCAASGRIFFYNDMGWYRQAPGKERELVASISSGTSTYYADSVKGRFTISRDNAKNTVYLQMNSLKPEDTAVYYCATGRPWHYSSATYDYWGQGTQVSVSS", "polyreactivity (PSR sort gate)": "low polyreactivity"}
{"residue-string": "QVQLVESGGGLVQAGGSLRLSCAASGRIFHTYGMGWYRQAPGKVRELVAAITWTGGSTYYADSVKGRFTISRDNAKNTVYLQMNSLKPEDTAVYYCNARYVYHSSFAGFDYWGQGTQVTVSS", "polyreactivity (PSR sort gate)": "low polyreactivity"}
{"residue-string": "QVQLVESCGGLVQAGGSLRLSCAASGSIFGYNDMGWYRQAPGKERELVATLTWGGGRTRYADSVKGRFTISRDNAKNTVYLQMNSLIPEDTAVDYCAADKRSYSYVRPPRNHEDYWGQGTQVTVSS", "polyreactivity (PSR sort gate)": "low polyreactivity"}
